// provenance: ChEMBL document CHEMBL5724914

CONDITION CONTEXT: human gut metagenome, 24 h, 2 µM; further: call rule not given here
MEASUREMENT NAME: Bacterial Biotransformation

Solved entries (count: 10):
INSERT INTO measurements (compound, measurement_name, measured_result) VALUES
  ('COC(=O)[C@H](c1ccccc1Cl)N1CCc2sccc2C1.O=S(=O)(O)O [CLOPIDOGREL BISULFATE]', 'Bacterial Biotransformation', 'Compound metabolized'),
  ('CCN(CC)CCOC(=O)C1(C2CCCCC2)CCCCC1', 'Bacterial Biotransformation', 'Compound metabolized'),
  ('CCCCCNC(=N)N/N=C/c1c[nH]c2ccc(OC)cc12.O=C(O)/C=C\C(=O)O [TEGASEROD MALEATE]', 'Bacterial Biotransformation', 'Compound NOT metabolized'),
  ('COc1ccc(C(CN(C)C)C2(O)CCCCC2)cc1 (stereo not drawn)', 'Bacterial Biotransformation', 'Compound NOT metabolized'),
  ('CCCN(CCC)CCc1cccc2c1CC(=O)N2', 'Bacterial Biotransformation', 'Compound NOT metabolized'),
  ('COc1ccnc(C[S+]([O-])c2nc3ccc(OC(F)F)cc3[nH]2)c1OC (stereo not drawn)', 'Bacterial Biotransformation', 'Compound metabolized'),
  ('COc1cc(C(=O)NCc2ccc(OCCN(C)C)cc2)cc(OC)c1OC [TRIMETHOBENZAMIDE]', 'Bacterial Biotransformation', 'Compound NOT metabolized'),
  ('CN(C/C=C/C#CC(C)(C)C)Cc1cccc2ccccc12', 'Bacterial Biotransformation', 'Compound NOT metabolized'),
  ('CN1CCC(OC(c2ccccc2)c2ccccc2)CC1', 'Bacterial Biotransformation', 'Compound metabolized'),
  ('CN1CCN2c3ccccc3Cc3ccccc3C2C1 (stereo not drawn)', 'Bacterial Biotransformation', 'Compound NOT metabolized');

For every record below, what is its Bacterial Biotransformation?
1. CC(C)[C@H]1CC[C@H](C(=O)N[C@H](Cc2ccccc2)C(=O)O)CC1 [NATEGLINIDE]
2. C[N+]12CCC(CC1)C(OC(=O)C(O)(c1ccccc1)c1ccccc1)C2.[Br-] (stereo not drawn) [CLIDINIUM BROMIDE]
3. COc1ccc(CN2CCNCC2)c(OC)c1OC.Cl.Cl [TRIMETAZIDINE DIHYDROCHLORIDE]
4. COC(=O)C(c1ccccc1)C1CCCCN1 (stereo not drawn) [METHYLPHENIDATE]
5. O=C1CC2(CCCC2)CC(=O)N1CCCCN1CCN(c2ncccn2)CC1
6. CCOC(=O)C1=C(C)NC(C)=C(C(=O)OC)C1c1cccc([N+](=O)[O-])c1 (stereo not drawn)

A:
1. Compound metabolized
2. Compound metabolized
3. Compound NOT metabolized
4. Compound NOT metabolized
5. Compound NOT metabolized
6. Compound metabolized

Provide Bacterial Biotransformation for all items below, preserving their order.
1. Cc1nc(Nc2ncc(C(=O)Nc3c(C)cccc3Cl)s2)cc(N2CCN(CCO)CC2)n1 [DASATINIB ANHYDROUS]
2. O=C(NC(Cc1cc(=O)[nH]c2ccccc12)C(=O)O)c1ccc(Cl)cc1 (stereo not drawn) [REBAMIPIDE]

A:
Compound metabolized
Compound NOT metabolized

Here are 3 compounds. What values of Bacterial Biotransformation were reported for them?
1. Cc1cc2c(s1)Nc1ccccc1N=C2N1CCN(C)CC1
2. CC(=O)Oc1ccc(C(c2ccc(OC(C)=O)cc2)c2ccccn2)cc1
3. Br.COc1ccc2c(c1)[C@]13CCCC[C@@H]1[C@H](C2)N(C)CC3.O [DEXTROMETHORPHAN HYDROBROMIDE]

A:
1: Compound NOT metabolized; 2: Compound metabolized; 3: Compound metabolized

Value sought for every listed compound: Bacterial Biotransformation.
1. CCc1oc2ccccc2c1C(=O)c1cc(Br)c(O)c(Br)c1
2. CN1CCC[C@@H]1CCO[C@](C)(c1ccccc1)c1ccc(Cl)cc1.O=C(O)/C=C/C(=O)O [CLEMASTINE FUMARATE]
3. CCN1CCCC1CNC(=O)c1cc(S(=O)(=O)CC)c(N)cc1OC (stereo not drawn) [AMISULPRIDE]
4. CN1CCC(=C2c3ccccc3CC(=O)c3sccc32)CC1.O=C(O)/C=C/C(=O)O [KETOTIFEN FUMARATE]
5. O=C(O)c1cc(/N=N/c2ccc(S(=O)(=O)Nc3ccccn3)cc2)ccc1O
6. CN(C)C(=O)Oc1cc(OC(=O)N(C)C)cc(C(O)CNC(C)(C)C)c1 (stereo not drawn)
7. OCCN(CCO)c1nc(N2CCCCC2)c2nc(N(CCO)CCO)nc(N3CCCCC3)c2n1

A:
1. Compound metabolized
2. Compound metabolized
3. Compound NOT metabolized
4. Compound NOT metabolized
5. Compound metabolized
6. Compound metabolized
7. Compound metabolized
